B1: TPR t1 (parent)
chain: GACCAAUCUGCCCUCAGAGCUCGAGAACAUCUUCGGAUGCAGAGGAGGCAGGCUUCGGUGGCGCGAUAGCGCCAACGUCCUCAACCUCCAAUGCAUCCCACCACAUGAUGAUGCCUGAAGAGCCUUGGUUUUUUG

Variants of: B1
Assay Method Text: polymerase ribozyme fitness, log enrichment relative to wild type (log ratio); higher = more active; in vitro selection for triplet polymerase activity
Experimental Endpoint: polymerase ribozyme fitness (log ratio)

- GACCAAUCUGCCCUGAGAGCUCGAGAACAUCUUCGGAUGCAGAGGAGGCAGGCUUCGGUGGCGCGAUAGGGCCAACGUCCUCAACAUCCAAUGCAUCCCACCACAUGAUGAUGCCUGAAAAGCCUUGGUUUUUUG: -4.5
- GACCAAUCCGCCCUCAGAGCUCGAGAACAUCUUCGGAUGCAGAGGAGGCAGGCUUCGGUGGCGCGAUAUCGCCAACGUCCUCAACCUCCAAUGCAUCCCUCCACAUGAUGAAGCCUGAAGAGUCUUGGUUUUUUG: 2.09
- GACCAAUCUGCCCUCAGAGCUCGAGAACAUCUUCGGAUGCAGAGGAGGCAGGCUUCGGUGUCGCGAUAGCGCCAACGUCCUCAUCCUCCAAUGCAUCCCACCACAUGAUGAUGCCUGAAGAGCCUUGGUUUUUUG: -0.0265
- GACCAAUCUGCCCUCAGAGCUCGAGAACAUCUUCGGAUGAAGAGGAGGCAGGCUUCGGUGGCGCGAUAGCGCCAACGUCCUCAACCUCCAAUGCAUCCCACUACAUGAUGAUGCCUGAAGAGCCUUGGUUUUUUG: -3.15
- GACCAAUCUGUCUUCAGAGCUCGAGAACAUCUUCGGAUGCAGAGGAGGCAGGUUUCGGUGGCUCGAUAGCGCCAACGUCCUCAACCUCCAAGGCAUCCCACCAUAUGAUGAAGCCUGAAGAGCCUUGGUUUUUUG: -4.22
- GACCAAUCUGCCCUCAGAGCUCGAGAACAUCUUCGGAUGCAGAGGAGGCAGGCUUCGGUGGCGCGAUAGCCCCAACGUCCUCAACCUCCAAUGCAUCCCACCACAUGAUGAUGCCUUAAGAGCCUUGGUUUUUUG: -3.08
- GACCAAUCUGCCCUCAGAGCUCGAGAACAUCUUCGGAUGCAGAGGAGGCAGGCUUCGGUGGCGCGAUAGCUCCAACGUCCUCUACCUCCAAUGCAUCCCACCACAUGAUGAUGCCUGAAGAGCCUUGGUUUUUUG: -0.358
